Sourced from patent US5599953A

target: UniProt P08236; experiment: Inhibition of β-glucuronidase mediated hydrolysis of 4-HPR-O-glucuronide; format: biochemical; settings: 10% methanol as co-solvent; 4-HPR-O-glucuronide below 184.5 μM
Sequence (P08236 23-651, species assumed): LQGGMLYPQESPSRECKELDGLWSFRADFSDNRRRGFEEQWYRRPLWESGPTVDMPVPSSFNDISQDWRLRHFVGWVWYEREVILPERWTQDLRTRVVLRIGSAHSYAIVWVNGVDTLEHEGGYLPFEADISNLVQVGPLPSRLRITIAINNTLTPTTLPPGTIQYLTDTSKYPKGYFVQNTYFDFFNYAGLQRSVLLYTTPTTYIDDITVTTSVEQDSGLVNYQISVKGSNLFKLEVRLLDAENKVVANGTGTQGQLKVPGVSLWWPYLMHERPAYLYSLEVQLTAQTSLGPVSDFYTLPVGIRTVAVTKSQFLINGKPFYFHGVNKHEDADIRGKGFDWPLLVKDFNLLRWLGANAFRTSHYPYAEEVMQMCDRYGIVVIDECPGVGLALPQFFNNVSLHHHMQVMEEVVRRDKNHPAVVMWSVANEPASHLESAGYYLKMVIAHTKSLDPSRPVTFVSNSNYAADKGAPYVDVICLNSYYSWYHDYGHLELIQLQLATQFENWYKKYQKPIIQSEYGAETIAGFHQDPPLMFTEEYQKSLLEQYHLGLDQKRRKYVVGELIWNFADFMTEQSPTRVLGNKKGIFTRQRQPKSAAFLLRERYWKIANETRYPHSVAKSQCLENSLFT
readoutKind: IC50 (µM)

1. CC1=C(/C=C/C(C)=C/C=C/C(C)=C/C(=O)Nc2ccc([C@@H]3O[C@H](C(=O)O)[C@@H](O)[C@H](O)[C@H]3O)cc2)C(C)(C)CCC1 [4-(retinamido)phenyl-C-glucuronide] ... 267
2. CC1=C(/C=C/C(C)=C/C=C/C(C)=C/C(=O)Nc2ccc(C[C@@H]3O[C@H](C(=O)O)[C@@H](O)[C@H](O)[C@H]3O)cc2)C(C)(C)CCC1 [4-(retinamido)benzyl-C-glucuronide] ... 236

* * *

molecular target: mRARγ (Mus musculus, UniProt P18911); construct: made in house; host or cells: Spodoptera frugiperda insect cells, baculovirus (whole cell extract); assay: Drug competition with (3H)retinoic acid binding, mRARγ; conditions: read-out: percent reduction of binding of the (3H)retinoic acid, mRARγ; 1 μM drug; 5 nM [3H]RA
Sequence (P18911 whole entry): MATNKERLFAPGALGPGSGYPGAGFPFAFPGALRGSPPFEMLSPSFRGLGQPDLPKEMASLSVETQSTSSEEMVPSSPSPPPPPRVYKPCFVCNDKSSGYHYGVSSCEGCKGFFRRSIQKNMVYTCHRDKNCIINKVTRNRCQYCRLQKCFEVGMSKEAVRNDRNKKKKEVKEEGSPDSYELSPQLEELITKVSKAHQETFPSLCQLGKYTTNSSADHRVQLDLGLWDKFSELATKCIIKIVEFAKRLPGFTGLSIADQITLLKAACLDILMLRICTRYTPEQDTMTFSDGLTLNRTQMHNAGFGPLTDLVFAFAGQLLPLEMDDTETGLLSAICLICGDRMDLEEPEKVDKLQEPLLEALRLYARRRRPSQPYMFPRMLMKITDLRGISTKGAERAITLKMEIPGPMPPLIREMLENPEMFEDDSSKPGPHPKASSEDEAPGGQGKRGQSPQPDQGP
readoutKind: inhibition at 1 µM (%)

Take a look at these entries with their results.
1) CC1=C(/C=C/C(C)=C/C=C/C(C)=C/C(=O)Nc2ccc(C[C@@H]3O[C@H](C(=O)O)[C@@H](O)[C@H](O)[C@H]3O)cc2)C(C)(C)CCC1 [4-(retinamido)benzyl-C-glucuronide] ... 78
2) CC1=C(/C=C/C(C)=C/C=C/C(C)=C\C(=O)O)C(C)(C)CCC1 [13-cis-retinoic acid, reference compound] ... 4
3) CC1=C(/C=C/C(C)=C/C=C/C(C)=C/C(=O)O)C(C)(C)CCC1 [retinoic acid, reference compound] ... 100
4) CC1=C(/C=C/C(C)=C/C=C/C(C)=C/C(=O)Nc2ccc(O[C@@H]3O[C@H](C(=O)O)[C@@H](O)[C@H](O)[C@H]3O)cc2)C(C)(C)CCC1 [4-HPR-O-glucuronide, reference compound] ... 7

P. CC1=C(/C=C/C(C)=C/C=C/C(C)=C/C(=O)Nc2ccc(O)cc2)C(C)(C)CCC1 [Example 4-HPR, N-(4-hydroxyphenyl) retinamide, reference compound]
Q. CC1=C(/C=C/C(C)=C/C=C/C(C)=C/C(=O)Nc2ccc([C@@H]3O[C@H](C(=O)O)[C@@H](O)[C@H](O)[C@H]3O)cc2)C(C)(C)CCC1 [4-(retinamido)phenyl-C-glucuronide]
R. CC1=C(/C=C/C(C)=C/C=C/C(C)=C/C(=O)Nc2ccc(C[C@@H]3O[C@H](CO)[C@@H](O)[C@H](O)[C@H]3O)cc2)C(C)(C)CCC1 [4-(retinamido)benzyl-C-glucoside]
S. CC1=C(/C=C/C(C)=C/C=C/C(C)=C/C(=O)Nc2ccc(C[C@@H]3OC[C@@H](O)[C@H](O)[C@H]3O)cc2)C(C)(C)CCC1 [4-(retinamido)benzyl-C-xyloside]
Sort the compounds on inhibition at 1 µM; start with the lowest figure. Output spec: a listing of the labels in the requested order.
S, P, Q, R

* * *

experiment: Acid stability, 0.1N HCl at 37° C. for two hours; format: physicochemical; settings: HPLC
readoutKind: degraded at 2 h

# return recorded degraded at 2 h for entry CC1=C(/C=C/C(C)=C/C=C/C(C)=C/C(=O)O[C@@H]2O[C@H](C(=O)O)[C@@H](O)[C@H](O)[C@H]2O)C(C)(C)CCC1 [RAG, retinoyl β-glucuronide, reference compound]
~50%
